Recorded DC50 by entry
- SYSTEM_TESTED: SMARCA4-HiBiT HeLa cells (protein which is expressed from the SMARCA4 gene) (Homo sapiens)
- Construct: protein which is expressed from the SMARCA2 and SMARCA4 genes; host or cells: HeLa (SMARCA4-HiBiT engineered line)
- Sequence (P51532 whole entry): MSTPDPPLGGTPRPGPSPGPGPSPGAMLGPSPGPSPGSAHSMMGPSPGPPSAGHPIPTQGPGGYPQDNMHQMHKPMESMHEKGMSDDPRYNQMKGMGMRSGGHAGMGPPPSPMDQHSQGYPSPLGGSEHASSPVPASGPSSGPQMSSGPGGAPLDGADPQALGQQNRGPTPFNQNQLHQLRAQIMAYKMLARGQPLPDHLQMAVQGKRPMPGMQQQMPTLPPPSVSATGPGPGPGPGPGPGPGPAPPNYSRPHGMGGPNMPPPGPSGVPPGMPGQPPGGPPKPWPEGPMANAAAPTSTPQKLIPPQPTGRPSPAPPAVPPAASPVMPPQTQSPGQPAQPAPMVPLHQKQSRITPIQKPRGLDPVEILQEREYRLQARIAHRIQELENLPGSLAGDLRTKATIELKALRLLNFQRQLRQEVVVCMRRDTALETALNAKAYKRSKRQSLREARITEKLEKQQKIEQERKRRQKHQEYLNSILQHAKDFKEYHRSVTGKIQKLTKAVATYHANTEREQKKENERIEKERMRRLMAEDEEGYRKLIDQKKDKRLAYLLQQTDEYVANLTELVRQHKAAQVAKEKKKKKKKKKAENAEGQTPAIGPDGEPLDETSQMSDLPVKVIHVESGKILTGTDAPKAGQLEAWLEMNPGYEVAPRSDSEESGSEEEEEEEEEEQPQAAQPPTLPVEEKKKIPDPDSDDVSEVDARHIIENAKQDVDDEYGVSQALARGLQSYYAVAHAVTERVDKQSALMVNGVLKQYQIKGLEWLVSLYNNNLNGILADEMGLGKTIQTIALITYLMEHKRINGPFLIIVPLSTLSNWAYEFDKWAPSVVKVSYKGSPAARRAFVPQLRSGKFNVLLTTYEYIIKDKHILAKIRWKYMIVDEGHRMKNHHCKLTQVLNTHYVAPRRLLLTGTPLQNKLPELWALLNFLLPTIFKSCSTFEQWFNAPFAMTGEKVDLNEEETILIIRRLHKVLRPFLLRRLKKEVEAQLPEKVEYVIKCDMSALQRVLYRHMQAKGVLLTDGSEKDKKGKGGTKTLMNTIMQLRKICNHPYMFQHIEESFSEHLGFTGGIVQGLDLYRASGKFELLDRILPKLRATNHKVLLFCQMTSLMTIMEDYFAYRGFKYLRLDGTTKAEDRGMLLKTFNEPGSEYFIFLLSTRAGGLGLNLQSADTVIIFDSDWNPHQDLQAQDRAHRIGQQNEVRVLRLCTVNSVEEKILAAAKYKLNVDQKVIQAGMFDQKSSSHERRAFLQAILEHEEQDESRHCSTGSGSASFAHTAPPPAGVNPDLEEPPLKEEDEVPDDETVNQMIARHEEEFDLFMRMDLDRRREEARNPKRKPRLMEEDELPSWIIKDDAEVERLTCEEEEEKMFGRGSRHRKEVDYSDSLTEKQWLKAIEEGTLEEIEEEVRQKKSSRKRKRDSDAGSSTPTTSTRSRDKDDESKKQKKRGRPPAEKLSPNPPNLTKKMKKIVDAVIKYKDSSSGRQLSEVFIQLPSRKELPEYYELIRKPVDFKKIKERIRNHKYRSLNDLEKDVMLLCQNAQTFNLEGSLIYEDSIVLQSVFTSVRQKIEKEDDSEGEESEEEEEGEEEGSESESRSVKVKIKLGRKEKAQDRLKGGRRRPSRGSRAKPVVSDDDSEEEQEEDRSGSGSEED
- MEASUREMENT_NOTES: SMARCA4 degradation assay (HiBiT-fusion HeLa cell line, 24 h, luminescence)
- Type: cell-based

- COMPOUND: "Cc1nn2ccn(CC#Cc3nccc(N4C[C@H]5C[C@@H]4CN5c4cc(-c5ccccc5O)nnc4N)n3)c(=O)c2c1C [Compound P-286]"
  DC50: "0.05 to 0.5 µM"
- COMPOUND: "Nc1nnc(-c2ccccc2O)cc1N1CCCN(c2ccnc(C#CCN3CCOCC3)n2)CC1 [Compound P-136]"
  DC50: "0.05 to 0.5 µM"
- COMPOUND: "CC1CN(c2ccnc(C#CCN)n2)CCN(c2cc(-c3ccccc3O)nnc2N)C1 (stereo not drawn) [Compound P-39]"
  DC50: "0.5 to 5 µM"
- COMPOUND: "Nc1nnc(-c2cc(F)ccc2O)cc1N1CCCN(c2ccnc(C#CCNC(=O)c3cc4ncccn4n3)n2)CC1 [Compound P-367]"
  DC50: "0.5 to 5 µM"

Req: Specify DC50 for Nc1nnc(-c2ccccc2O)cc1N1CC2(CCN(c3ccnc(C#CCNC(=O)c4cc5ncccn5n4)n3)CC2)C1 [Compound P-31] and stop.
Resp: 0.05 to 0.5 µM

Req: Given C[C@@H]1CCN(c2cc(-c3ccccc3O)nnc2N)CCN1c1ccnc(/C=C/CN(C)CCF)n1 [Compound P-164] , respond with its DC50.
Resp: < 0.05 µM

Req: Name the recorded DC50 of the compound listed here: C[C@@H]1CCN(c2cc(-c3ccccc3O)nnc2N)CCN1c1ccnc(C#CCNC(=O)c2cc3ncccn3n2)n1 [Compound P-14]
Resp: 0.05 to 0.5 µM

Req: Read off the recorded DC50 for C[C@@H]1CCN(c2cc(-c3ccccc3O)nnc2N)CCN1c1ccc(C#N)c(C#CCN2CC3CC2C3)n1 [Compound P-393]
Resp: < 0.05 µM

Req: Look up and state reported DC50 for Cn1nccc1OCC#Cc1nccc(N2CCCN(c3cc(-c4ccccc4O)nnc3N)CC2)n1 [Compound P-131]
Resp: 0.05 to 0.5 µM
